B1: ZNF449 (parent)
chain: RIHSGEEPHKCPECGKRFLRSSDL

# Variants of: B1
# ASSAY_PROTOCOL: protein stability index of a GFP-peptide fusion (GPS, HEK-293T) (PSI 1-6); higher = more stable;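 also: lentivirally expressed fusions sorted by FACS into six bins by GFP to DsRed ratio, PSI derived from sequencing read proportions per bin multiplied by bin number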
# SETTINGS: c terminus: a fixed tail appended
Would you kindly list protein stability index for each of these variants?
Answer as a number with no unit attached.

Task: GET /values?readout=protein stability index&item= RKHSGEEPHKCPECGKRFLRSSDL [I2K]
Result: 3.43

Task: Another variant: RIHSGEEPHKCPECGKRFQRSSDL [L19Q]
Result: 4.41

Task: // same read-out, input: RIHSGEEPHKYPECGKRFLRSSDL [C11Y]
Result: 4.21

Task: Another: RIHSGEETHKCPECGKRFLRSSDL [P8T]
Result: 3.45

Task: Another variant to look at: RIHSFEEPHKCPECGKRFLRSSDL [G5F]
Result: 3.22

Task: Likewise for RYHSGEEPHKCPECGKRFLRSSDL [I2Y] ?
Result: 3.79

Task: Check RIHSGEEPHKCPECGKRFLRSSVL [D23V] too.
Result: 1.73

Task: And what about the variant RIHSGEEPEKCPECGKRFLRSSDL [H9E] ?
Result: 3.78

Task: Note, next up: RIHSGEEPHKCPEGGKRFLRSSDL [C14G]
Result: 4.65

Task: Again, but for RIHSGEEPHKCPECGKRALRSSDL [F18A]
Result: 5.36

Task: Also, RIHSGEEPPKCPECGKRFLRSSDL [H9P] please.
Result: 3.2

Task: What about this variant? RIHSGEEPHKCPECGKRFLRSGDL [S22G]
Result: 3.74

Task: Can you check RIHSIEEPHKCPECGKRFLRSSDL [G5I] next?
Result: 3.34

Task: Same again, this time with RIHSGEEPHKSPECGKRFLRSSDL [C11S]
Result: 3.72

Task: Field entry: RIHEGEEPHKCPECGKRFLRSSDL [S4E]
Result: 3.7
